The measured values listed here are drawn from ChEMBL document CHEMBL4311943.

Exercise: for every item that follows, state its recorded Vmax.
- TESTED_ON: UDP-glucuronosyltransferase 2B17 (Homo sapiens)
- Sequence (O75795 whole entry): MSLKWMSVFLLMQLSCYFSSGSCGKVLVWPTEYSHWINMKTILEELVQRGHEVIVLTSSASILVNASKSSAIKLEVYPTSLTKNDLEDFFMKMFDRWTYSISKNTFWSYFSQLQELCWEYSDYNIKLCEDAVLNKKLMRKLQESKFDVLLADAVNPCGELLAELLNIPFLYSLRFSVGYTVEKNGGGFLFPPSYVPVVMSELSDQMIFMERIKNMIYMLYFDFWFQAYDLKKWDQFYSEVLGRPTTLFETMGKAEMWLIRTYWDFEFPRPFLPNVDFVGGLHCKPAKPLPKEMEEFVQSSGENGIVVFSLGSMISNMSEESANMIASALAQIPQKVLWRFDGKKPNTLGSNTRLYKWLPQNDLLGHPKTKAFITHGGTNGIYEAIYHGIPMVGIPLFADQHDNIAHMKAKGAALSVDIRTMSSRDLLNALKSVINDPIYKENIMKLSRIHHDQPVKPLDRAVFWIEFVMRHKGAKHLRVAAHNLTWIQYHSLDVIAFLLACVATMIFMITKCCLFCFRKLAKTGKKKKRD
- ASSAY_PROCEDURE: Substrate activity at UGT2B17 in human intestinal microsomes assessed as enzyme-mediated glucuronidation by measuring Vmax per mg protein at 2 to 1000 uM preincubated for 5 mins followed by UDPGA addition and measured after 60 mins by LC-MS/MS analysis
- Assay type: ADME, Intestine
- CONDITIONS: 1 h
State just the number; it will be interpreted in pmol/min.

For the compound CS(=O)(=O)c1ccc(Oc2cc(F)cc(C#N)c2)c2c1[C@H](O)C(F)(F)C2 , the measured Vmax on UDP-glucuronosyltransferase 2B17 (Homo sapiens) was 49

Reported Vmax (UDP-glucuronosyltransferase 2B17 (Homo sapiens)) for entry CS(=O)(=O)c1ccc(Oc2cc(F)cc(C#N)c2)c2c1[C@H](O)[C@H](F)C2 is 2.1

Here CS(=O)(=O)c1ccc(Oc2cc(F)cc(C#N)c2)c2c1[C@H](O)[C@H](F)[C@@H]2F was tested on UDP-glucuronosyltransferase 2B17 (Homo sapiens), and its Vmax came to 0.5

Field Vmax (system: UDP-glucuronosyltransferase 2B17 (Homo sapiens)) for entry CS(=O)(=O)c1ccc(Oc2cc(F)cc(C#N)c2)c2c1[C@H](O)[C@@H](F)C2 = 11

Form: item CS(=O)(=O)c1ccc(Oc2cc(F)cc(C#N)c2)c2c1[C@H](O)C[C@@H]2F ; test system UDP-glucuronosyltransferase 2B17 (Homo sapiens); Vmax: 0.3

# lookup: CS(=O)(=O)c1ccc(Oc2cc(F)cc(C#N)c2)c2c1[C@H](O)CC2 on UDP-glucuronosyltransferase 2B17 (Homo sapiens), Vmax = 0.8

Summary: CS(=O)(=O)c1ccc(Oc2cc(F)cc(C#N)c2)c2c1[C@H](O)C(F)(F)[C@@H]2F , UDP-glucuronosyltransferase 2B17 (Homo sapiens), Vmax = 72
